- Experimental details: NCI Yeast Anticancer Drug Screen. Data for the mec2-1 strain (AID 157)
- Reported conditions: S. cerevisiae mec2-1 strain, at 50.0 µM (retest, dose inferred, filed as 5.0)
- Protocol: Growth inhibition of yeast strains with defined genetic alterations is measured as a screen for potential anti-cancer activity. Selected strains with alterations in DNA damage repair or cell cycle control were exposed to compounds and growth inhibition was measured relative to vehicle treated controls. The strain used in this assay is mec2-1
This is part of a sample that, as a whole, favours compounds with a hit. Of some 79,000 tested, about 15% had one in any assay. Activity calls are given as the source filed them. No stated cut-off is given here; in the data, active means growth inhibition above about 70%; inactive means the rest.
Can you answer with just one of these options? yes = active, no = inactive

Compound | Assigned class
CCCCCCCCCCCC[n+]1ccc(C#N)cc1 | yes
CCCCNc1ccc(C(=O)OC2CCN(C)CC2)c(Cl)c1 | yes
CN(C)c1ccc(C2(Cl)c3ccccc3N(Cc3ccccc3)c3ccccc32)cc1 | yes
Oc1[nH]c2ccccc2c1N=NC(=S)NCc1ccccn1 | yes
CCOC1(c2ccccc2)c2ccccc2S(=O)(=O)N1C (stereo unspecified) | no
CCN(CC)CCSCCCNc1cc(OC)cc2cccnc12 | no
CC(C)(C)c1ccc(C(=O)C[n+]2ccc(Cl)c3ccc(Cl)cc32)cc1 | yes
Clc1ccc(C2=Nc3ccccc3SC(c3ccc(Cl)c(Cl)c3)C2)c(Cl)c1 (stereo unspecified) | no

Identify the outcome logged in this assay for the compound shown: Cc1ccc(C2=CC(=O)/C(=C\C(=O)c3ccc(Cl)cc3)O2)cc1 no

Identify the outcome logged in this assay for the compound shown: Cn1c(=O)cc2c3c(ccc(C(=O)O)c31)C(=O)c1ccccc1-2 no

Identify the outcome logged in this assay for the compound shown: CCCCC/C(=C/C=C/c1ccc(Cl)cc1)CN(C)C yes
